# methodNotes: activity coefficient (dimensionless); of the first substance listed, at infinite dilution; xn = mol fraction of the nth substance listed
# condition: 358.15 K; 100 kPa; Liquid; Chromatography; x1 = 0
metric: activity coefficient
Could you respond with only the numeric value?

Sample records with activity coefficient:
{"compound": "CCCC(C)=O [pentan-2-one] + CCCC[P+](CC)(CCCC)CCCC.CCOP(=O)([O-])OCC", "activity coefficient": 1.02}
{"compound": "C#CCCCC [1-hexyne] + CCCC[P+](CC)(CCCC)CCCC.CCOP(=O)([O-])OCC", "activity coefficient": 0.979}
{"compound": "Cc1ccccc1C [1,2-dimethylbenzene] + CCCC[P+](CC)(CCCC)CCCC.CCOP(=O)([O-])OCC", "activity coefficient": 1.47}

Now look at this one.
Entry under review: C=CCCCCCCCC [1-decene] + CCCC[P+](CC)(CCCC)CCCC.CCOP(=O)([O-])OCC . Reported activity coefficient? 4.81

* * *

# methodNotes: activity coefficient (dimensionless); of the first substance listed, at infinite dilution; xn = mol fraction of the nth substance listed
# condition: 358.15 K; 100 kPa; Liquid; Chromatography; x1 = 0
metric: activity coefficient
Please give the numeric answer without any surrounding text.

Please review the following examples before continuing.
{"molecule": "COC(C)(C)C [2-methoxy-2-methylpropane] + CCCC[P+](CC)(CCCC)CCCC.CCOP(=O)([O-])OCC", "activity coefficient": 1.82}
{"molecule": "C#CCCCCC [1-heptyne] + CCCC[P+](CC)(CCCC)CCCC.CCOP(=O)([O-])OCC", "activity coefficient": 1.13}
{"molecule": "CCO [ethanol] + CCCC[P+](CC)(CCCC)CCCC.CCOP(=O)([O-])OCC", "activity coefficient": 0.042}
{"molecule": "CCCCC [pentane] + CCCC[P+](CC)(CCCC)CCCC.CCOP(=O)([O-])OCC", "activity coefficient": 2.75}
{"molecule": "CCCCCCC [heptane] + CCCC[P+](CC)(CCCC)CCCC.CCOP(=O)([O-])OCC", "activity coefficient": 3.78}

Entry C1CCOC1 [tetrahydrofuran] + CCCC[P+](CC)(CCCC)CCCC.CCOP(=O)([O-])OCC : reported activity coefficient = ? 0.907

Which activity coefficient value belongs to C=CCCCCCC [oct-1-ene] + CCCC[P+](CC)(CCCC)CCCC.CCOP(=O)([O-])OCC ? 3.45

Sample C#CCCC [1-pentyne] + CCCC[P+](CC)(CCCC)CCCC.CCOP(=O)([O-])OCC — what was its activity coefficient? 0.833

Value lookup for activity coefficient; key = Cc1ccccc1 [toluene] + CCCC[P+](CC)(CCCC)CCCC.CCOP(=O)([O-])OCC 1.16

Please look up its activity coefficient: CC1CCCCC1 [methylcyclohexane] + CCCC[P+](CC)(CCCC)CCCC.CCOP(=O)([O-])OCC 2.48

* * *

# methodNotes: activity coefficient (dimensionless); of the first substance listed, at infinite dilution; xn = mol fraction of the nth substance listed
# condition: 368.15 K; 100 kPa; Liquid; Chromatography; x1 = 0
metric: activity coefficient
Would you mind answering with just the numeric figure?

Examples with their reported activity coefficient follow.
{"compound": "CC(C)CC(C)(C)C [2,2,4-trimethylpentane] + CCCC[P+](CC)(CCCC)CCCC.CCOP(=O)([O-])OCC", "metric": "activity coefficient", "measured": 3.97}
{"compound": "Cc1ccc(C)cc1 [1,4-dimethylbenzene] + CCCC[P+](CC)(CCCC)CCCC.CCOP(=O)([O-])OCC", "metric": "activity coefficient", "measured": 1.55}
{"compound": "COC(C)(C)C [2-methoxy-2-methylpropane] + CCCC[P+](CC)(CCCC)CCCC.CCOP(=O)([O-])OCC", "metric": "activity coefficient", "measured": 1.8}

Turning now to a further compound:
Param item = C=CCCCCC [1-heptene] + CCCC[P+](CC)(CCCC)CCCC.CCOP(=O)([O-])OCC ; retrieve measured activity coefficient. 2.89

* * *

# methodNotes: activity coefficient (dimensionless); of the first substance listed, at infinite dilution; xn = mol fraction of the nth substance listed
# condition: 348.15 K; 100 kPa; Liquid; Chromatography; x1 = 0
metric: activity coefficient
Number only, please.

Example entries and their recorded answers appear below.
{"molecule": "CCC(C)CC [3-methylpentane] + CCCC[P+](CC)(CCCC)CCCC.CCOP(=O)([O-])OCC", "metric": "activity coefficient", "measured": 3.07}
{"molecule": "CCCOCCC [dipropyl ether] + CCCC[P+](CC)(CCCC)CCCC.CCOP(=O)([O-])OCC", "metric": "activity coefficient", "measured": 2.51}
{"molecule": "C#CCCCC [1-hexyne] + CCCC[P+](CC)(CCCC)CCCC.CCOP(=O)([O-])OCC", "metric": "activity coefficient", "measured": 0.936}
{"molecule": "C1CCCCCCC1 [cyclooctane] + CCCC[P+](CC)(CCCC)CCCC.CCOP(=O)([O-])OCC", "metric": "activity coefficient", "measured": 2.69}

// activity coefficient lookup, key: C1COCCO1 [1,4-dioxane] + CCCC[P+](CC)(CCCC)CCCC.CCOP(=O)([O-])OCC 1.05

Consider the molecule C=CCCCCCC [oct-1-ene] + CCCC[P+](CC)(CCCC)CCCC.CCOP(=O)([O-])OCC and give its measured activity coefficient. 3.52

* * *

# methodNotes: activity coefficient (dimensionless); of the first substance listed, at infinite dilution; xn = mol fraction of the nth substance listed
# condition: 338.15 K; 100 kPa; Liquid; Chromatography; x1 = 0
metric: activity coefficient
I'd appreciate a reply containing only the number, no unit.

Some solved entries appear below for comparison.
{"molecule": "O [water] + CCCC[P+](CC)(CCCC)CCCC.CCOP(=O)([O-])OCC", "activity coefficient": 0.105}
{"molecule": "C=CCCCCC [1-heptene] + CCCC[P+](CC)(CCCC)CCCC.CCOP(=O)([O-])OCC", "activity coefficient": 3.01}
{"molecule": "C1CCOC1 [tetrahydrofuran] + CCCC[P+](CC)(CCCC)CCCC.CCOP(=O)([O-])OCC", "activity coefficient": 0.926}
{"molecule": "CCO [ethanol] + CCCC[P+](CC)(CCCC)CCCC.CCOP(=O)([O-])OCC", "activity coefficient": 0.035}

Shifting focus to the molecule that follows.
Requested read-out: activity coefficient. Entry: C1COCCO1 [1,4-dioxane] + CCCC[P+](CC)(CCCC)CCCC.CCOP(=O)([O-])OCC 1.06

* * *

# methodNotes: activity coefficient (dimensionless); of the first substance listed, at infinite dilution; xn = mol fraction of the nth substance listed
# condition: 368.15 K; 100 kPa; Liquid; Chromatography; x1 = 0
metric: activity coefficient
Give the value as a plain number.

Here's what some known entries look like.
{"compound": "CO [methanol] + CCCC[P+](CC)(CCCC)CCCC.CCOP(=O)([O-])OCC", "activity coefficient": 0.03}
{"compound": "CCOCC [diethyl ether] + CCCC[P+](CC)(CCCC)CCCC.CCOP(=O)([O-])OCC", "activity coefficient": 1.71}
{"compound": "CCCCC(C)=O [2-hexanone] + CCCC[P+](CC)(CCCC)CCCC.CCOP(=O)([O-])OCC", "activity coefficient": 1.14}
{"compound": "C1CCOC1 [tetrahydrofuran] + CCCC[P+](CC)(CCCC)CCCC.CCOP(=O)([O-])OCC", "activity coefficient": 0.899}

Would you kindly look at the next entry?
Dear colleague, I am looking for the recorded activity coefficient of the following compound: CCCCCCCC [octane] + CCCC[P+](CC)(CCCC)CCCC.CCOP(=O)([O-])OCC 4.37

* * *

# methodNotes: activity coefficient (dimensionless); of the first substance listed, at infinite dilution; xn = mol fraction of the nth substance listed
# condition: 328.15 K; 100 kPa; Liquid; Chromatography; x1 = 0
We begin with a simple list: items and their reported activity coefficient.

{"compound": "C=CCCC [1-pentene] + CCCC[P+](CC)(CCCC)CCCC.CCOP(=O)([O-])OCC", "activity coefficient": 2.18}

Let us move to another entry and its activity coefficient.
What measured activity coefficient goes with C=CCCCCCC [oct-1-ene] + CCCC[P+](CC)(CCCC)CCCC.CCOP(=O)([O-])OCC ? 3.68

* * *

# methodNotes: activity coefficient (dimensionless); of the first substance listed, at infinite dilution; xn = mol fraction of the nth substance listed
# condition: 358.15 K; 100 kPa; Liquid; Chromatography; x1 = 0
Response field label: string, one of True (activity coefficient strictly below 2) or False.

Observe how each entry below is paired with its result.
{"molecule": "CO [methanol] + CCCC[P+](CC)(CCCC)CCCC.CCOP(=O)([O-])OCC", "classAssignment": "True"}
{"molecule": "CCCCCC [hexane] + CCCC[P+](CC)(CCCC)CCCC.CCOP(=O)([O-])OCC", "classAssignment": "False"}
{"molecule": "C1CCCCCC1 [cycloheptane] + CCCC[P+](CC)(CCCC)CCCC.CCOP(=O)([O-])OCC", "classAssignment": "False"}
{"molecule": "CC(C)OC(C)C [diisopropyl ether] + CCCC[P+](CC)(CCCC)CCCC.CCOP(=O)([O-])OCC", "classAssignment": "False"}
{"molecule": "CCC(=O)CC [pentan-3-one] + CCCC[P+](CC)(CCCC)CCCC.CCOP(=O)([O-])OCC", "classAssignment": "True"}
{"molecule": "CCCC(=O)CC [3-hexanone] + CCCC[P+](CC)(CCCC)CCCC.CCOP(=O)([O-])OCC", "classAssignment": "True"}

We next turn to a different molecule, shown below.
# TODO verify activity coefficient < 2 strictly for this molecule: c1ccsc1 [thiophene] + CCCC[P+](CC)(CCCC)CCCC.CCOP(=O)([O-])OCC True
